System: HCI-010 (organoid from a breast cancer xenograft)
experimental_details: CTG-3D luminescence at 96 h relative to day-0 seeding control (ratio to day 0); higher = more growth / less cytotoxicity; PDxO 3D drug screen, 96 h, CTG-3D normalised to day-0 seeding control.
settings: 1 µM; days in culture: 52
Could you label it 1.0 if measured CTG-3D luminescence at 96 h is 2 or higher, and 0.0 otherwise?

{"columns": ["molecule", "label_value"],
 "data": [
  ["CNC(=O)c1cccc(-c2ccc3c(N4CCOC[C@@H]4C)nc(N4CCOC[C@@H]4C)nc3n2)c1 [vistusertib]", 0.0],
  ["C[C@]12CC[C@@H]3c4ccc(O)cc4C[C@@H](CCCCCCCCC[S+]([O-])CCCC(F)(F)C(F)(F)F)[C@H]3[C@@H]1CC[C@@H]2O (some centres not stated) [fulvestrant]", 1.0],
  ["C=CCn1c(=O)c2cnc(Nc3ccc(N4CCN(C)CC4)cc3)nc2n1-c1cccc(C(C)(C)O)n1 [adavosertib]", 0.0],
  ["CCN(c1cc(C#CCN2CCOCC2)cc(C(=O)NCc2c(C)cc(C)[nH]c2=O)c1C)[C@H]1CC[C@H](N(C)CCOC)CC1", 1.0],
  ["C/C=C1\\NC(=O)[C@H]2CSSCC/C=C/[C@H](CC(=O)N[C@H](C(C)C)C(=O)N2)OC(=O)[C@H](C(C)C)NC1=O [romidepsin]", 0.0],
  ["CCc1c2c(nc3ccc(O)cc13)-c1cc3c(c(=O)n1C2)COC(=O)[C@]3(O)CC [SN-38]", 0.0],
  ["COc1cc2c(Oc3ccc4[nH]c(C)cc4c3F)ncnc2cc1OCCCN1CCCC1 [cediranib]", 1.0]
]}
